target: recombinant human P450 2C9 (Homo sapiens); assay: Recombinant human P450 isoform inhibition, 2C9
Sequence (P11712 whole entry, canonical isoform): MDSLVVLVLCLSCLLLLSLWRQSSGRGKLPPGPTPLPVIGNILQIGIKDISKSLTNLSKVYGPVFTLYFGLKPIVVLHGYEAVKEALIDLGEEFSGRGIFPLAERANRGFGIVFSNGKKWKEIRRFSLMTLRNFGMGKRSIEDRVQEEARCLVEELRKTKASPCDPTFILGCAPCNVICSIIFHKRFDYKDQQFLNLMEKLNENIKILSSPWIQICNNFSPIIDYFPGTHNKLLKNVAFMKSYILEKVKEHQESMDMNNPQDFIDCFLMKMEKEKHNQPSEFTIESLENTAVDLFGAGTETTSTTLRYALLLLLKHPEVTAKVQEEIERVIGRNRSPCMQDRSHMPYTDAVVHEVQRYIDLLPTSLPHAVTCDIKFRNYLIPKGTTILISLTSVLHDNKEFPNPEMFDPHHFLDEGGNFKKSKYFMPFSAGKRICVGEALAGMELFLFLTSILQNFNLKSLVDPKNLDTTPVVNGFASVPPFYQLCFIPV
pIC50: −log10 of the molar value.
result-type: pIC50

>>> value_measured("CN(C)C[C@H]1CCCC[C@]1(O)c1cccc(C(N)=O)c1 (single isomer, unassigned) [Cpd 3]")
"< 5.00"

* * *

Measured pKi accompanies every entry in the list below.
molecular target: delta opioid receptor (Rattus norvegicus); assay: Rat brain delta opioid receptor binding assay ([3H]DPDPE); details: rat forebrain membranes, 25° C.
Sequence (P33533 whole entry): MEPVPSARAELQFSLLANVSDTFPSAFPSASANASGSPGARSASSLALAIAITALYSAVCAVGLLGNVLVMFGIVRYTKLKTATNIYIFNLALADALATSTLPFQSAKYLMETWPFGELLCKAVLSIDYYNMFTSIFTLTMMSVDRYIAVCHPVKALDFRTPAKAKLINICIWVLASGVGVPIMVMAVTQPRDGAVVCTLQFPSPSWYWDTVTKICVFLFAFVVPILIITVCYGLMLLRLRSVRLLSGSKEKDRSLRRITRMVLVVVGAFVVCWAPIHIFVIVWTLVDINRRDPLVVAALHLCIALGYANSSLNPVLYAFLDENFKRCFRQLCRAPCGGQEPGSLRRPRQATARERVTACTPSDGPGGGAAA
pKi: −log10 of the molar value.
result-type: pKi

>>> value_measured("CN(C)C[C@@H]1CCCC[C@]1(O)c1cccc(C(N)=O)c1 (racemic)")
5.01
>>> value_measured("CN(C)C[C@H]1CCCC[C@]1(O)c1cccc(C(N)=O)c1 (single isomer, unassigned) [Cpd 3]")
5.50
>>> value_measured("CN(C)C[C@H]1CCCC[C@]1(O)c1cccc(C(N)=O)c1 (racemic) [Cpd 2]")
5.61
